- System: T1, RBFOX1 RRM RbFoxmut (Fox-RRM*) (Homo sapiens, UniProt Q9NWB1 109-208, R118D;E147R;N151S;E152T)
- T1 sequence: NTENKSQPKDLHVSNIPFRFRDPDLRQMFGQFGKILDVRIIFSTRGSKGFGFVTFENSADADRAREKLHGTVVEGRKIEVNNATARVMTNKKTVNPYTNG
- Assay: EMSA; HiTS-Eq, 1 nM pool, 10 min; buffer printed only for the single-RNA assays: 10 mM Tris pH 7.5, 150 mM NaCl, 3.4 mM EDTA, 0.001% NP-40, 30 C
- Condition info: tags: His6 N-terminal (pET28a); label: 5' 32P
In all, about 16,000 sequences were measured (“ka relative to ugcaugu”: median about 0.096, highest 2% from about 0.35 on). The list comes from a sample in which the highest values are over-represented; it also holds close analogues and randomly drawn sequences.
Hi there, I'd appreciate the recorded binding signal for every entry that follows.

Example cases with answers are listed next.
CCGCCGU (DNA:RNA) RNA: GGGAGACCGGAAUUCAGAUUGUCCCCGCCGUUUAAAUCCCGUCGUAGCCACCA DNA 1: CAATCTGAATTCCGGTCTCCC DNA 2: TGGTGGCTACGACGGGATT = 0.133 KA relative to UGCAUGU
GGGCCAA (DNA:RNA) RNA: GGGAGACCGGAAUUCAGAUUGUCCGGGCCAAUUAAAUCCCGUCGUAGCCACCA DNA 1: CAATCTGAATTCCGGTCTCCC DNA 2: TGGTGGCTACGACGGGATT = 0.0698 KA relative to UGCAUGU

Go through the list and state binding signal for each entry.
1. UAGAAUC (DNA:RNA) RNA: GGGAGACCGGAAUUCAGAUUGUCCUAGAAUCUUAAAUCCCGUCGUAGCCACCA DNA 1: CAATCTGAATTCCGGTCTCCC DNA 2: TGGTGGCTACGACGGGATT
2. CCAUUUC (DNA:RNA) RNA: GGGAGACCGGAAUUCAGAUUGUCCCCAUUUCUUAAAUCCCGUCGUAGCCACCA DNA 1: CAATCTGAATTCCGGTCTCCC DNA 2: TGGTGGCTACGACGGGATT
3. UUAGGAG (DNA:RNA) RNA: GGGAGACCGGAAUUCAGAUUGUCCUUAGGAGUUAAAUCCCGUCGUAGCCACCA DNA 1: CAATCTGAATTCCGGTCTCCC DNA 2: TGGTGGCTACGACGGGATT
4. AGCUUUC (DNA:RNA) RNA: GGGAGACCGGAAUUCAGAUUGUCCAGCUUUCUUAAAUCCCGUCGUAGCCACCA DNA 1: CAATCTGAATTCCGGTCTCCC DNA 2: TGGTGGCTACGACGGGATT

Result block:
1: 0.125 KA relative to UGCAUGU; 2: 0.0493 KA relative to UGCAUGU; 3: 0.129 KA relative to UGCAUGU; 4: 0.0646 KA relative to UGCAUGU
